target.or.system: human CTPS1 (Homo sapiens)
Construct: FLAG (with GG linker); His8 (with GG linker); purchased Proteros biostructures GmbH
Sequence (P17812 whole entry): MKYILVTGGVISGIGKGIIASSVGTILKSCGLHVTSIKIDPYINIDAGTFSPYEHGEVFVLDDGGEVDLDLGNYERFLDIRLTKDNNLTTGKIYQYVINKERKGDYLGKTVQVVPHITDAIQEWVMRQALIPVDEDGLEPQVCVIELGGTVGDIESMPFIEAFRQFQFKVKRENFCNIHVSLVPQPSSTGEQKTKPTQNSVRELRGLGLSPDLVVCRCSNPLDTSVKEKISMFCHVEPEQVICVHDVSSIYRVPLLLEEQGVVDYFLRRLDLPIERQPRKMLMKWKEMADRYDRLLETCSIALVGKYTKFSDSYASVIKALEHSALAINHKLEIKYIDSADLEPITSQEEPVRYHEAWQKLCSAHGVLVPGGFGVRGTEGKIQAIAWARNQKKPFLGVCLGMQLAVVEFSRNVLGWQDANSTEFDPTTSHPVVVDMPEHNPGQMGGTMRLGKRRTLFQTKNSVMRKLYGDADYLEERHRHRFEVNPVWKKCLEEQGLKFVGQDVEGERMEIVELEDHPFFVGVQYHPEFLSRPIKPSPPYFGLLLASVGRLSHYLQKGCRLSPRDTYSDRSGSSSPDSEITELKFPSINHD
assay.comment: Human CTPS1 enzyme inhibition, ADP-Glo Max assay
Assay type: biochemical
run.parameters: ADP-Glo Max assay; Table 10; read-out: Human CTPS1 Enzyme Inhibition, IC50 grouped by potency range (CTPS1)
quantity.kind: IC50

Per the records, this molecule ( CCOc1cncc(-c2ccc(NC(=O)C(C)(C)c3csc(NS(C)(=O)=O)n3)c(C(F)(F)F)c2)n1 ) has IC50 equal to < 100 nM

Per the records, this molecule ( CCC(CC)(C(=O)Nc1ccc(-c2cncc(OC)n2)cc1)c1csc(NS(=O)(=O)C2CC2)n1 ) has IC50 equal to < 100 nM

Per the records, this molecule ( CC(C)S(=O)(=O)Nc1nc(C(C)(C)C(=O)Nc2ccc(-c3cccnc3)cc2)cs1 ) has IC50 equal to 1000 to 10000 nM

Per the records, this molecule ( Cc1cncc(-c2ccc(NC(=O)C(C)(C)c3csc(NS(=O)(=O)C4CC4)n3)nc2)c1 ) has IC50 equal to < 100 nM

Per the records, this molecule ( Cc1nccnc1-c1ccc(NC(=O)C(C)(C)c2csc(NS(=O)(=O)C3CC3)n2)cc1 ) has IC50 equal to 1000 to 10000 nM

Per the records, this molecule ( COc1ccc(-c2ccc(NC(=O)Cc3csc(NS(=O)(=O)C4CC4)n3)cc2)cn1 ) has IC50 equal to 1000 to 10000 nM

Per the records, this molecule ( CCOc1cncc(-c2ccc(NC(=O)C(C)(C)c3csc(NS(=O)(=O)C4(C)CC4)n3)cc2)n1 ) has IC50 equal to < 100 nM

Per the records, this molecule ( CCOc1cncc(-c2ccc(NC(=O)C(C)(C)c3csc(NS(=O)(=O)C4CC4)n3)cc2)n1 ) has IC50 equal to < 100 nM
